These entries and their values trace back to patent US10683311B2.

TEST_DETAILS: log P by HPLC on reversed-phase column (C18), EEC Directive 79/831 Annex V.A8
Assay type: physicochemical
MEASUREMENT_CONTEXT: Method A: 40° C., 0.1% aqueous formic acid and acetonitrile
Classification by logP | ranges: c1 (below 4), c2 (4 to below 5), c3 (5 or more)

C[Si](C)(O)c1ccccc1Oc1cnc2nccn2c1 :: c1
C[Si](C)(C)c1c(F)cccc1Oc1cnc2ccsc2c1 :: c3

*Q* Kindly state the category for this compound: C[Si](C)(O)c1ccccc1Oc1cnc2c(F)c(F)ccc2c1
*A* c1

*Q* Likewise for C[Si](C)(O)c1c(F)cccc1Oc1cnc2ccccc2n1 ?
*A* c1

----------
TEST_DETAILS: log P by HPLC on reversed-phase column (C18), EEC Directive 79/831 Annex V.A8
Type: physicochemical
MEASUREMENT_CONTEXT: reversed-phase HPLC column (C18), Method A: 40° C., 0.1% aqueous formic acid and acetonitrile
MEASURED_QUANTITY: chromatographic logP
Form: value (number only, do not type unit).

Ic1ccccc1Oc1cnc2ccccc2c1 :: 3.71
Cc1nc2c(F)c(F)ccc2cc1Oc1ccccc1[N+](=O)[O-] :: 3.37
Fc1cccc(Oc2cnc3c(F)c(F)ccc3c2)c1Br :: 3.9
C[Si](C)(c1ccc(Cl)cc1)c1ccccc1Cc1cnc2ccccc2c1 :: 4.74

From here, focus on the item given below.
*Q* Which chromatographic logP is listed for Cc1nc2c(F)c(F)ccc2cc1Oc1ccc(F)cc1Br ?
*A* 4.25

----------
# Efficacy per entry
Test system: Pyricularia oryzae
TEST_DETAILS: microbe, parasite or virus in culture
Type: cell-based
MEASUREMENT_CONTEXT: 20 ppm; inhibition of fungal growth, liquid culture, 5 days incubation
Entry rule: numbers only, all in %.

Some solved entries appear below for comparison.
Cc1cc(Oc2cccc(F)c2[Si](C)(C)C)c2ccc(F)c(F)c2n1 [CMP3, reference compound] :: 96
C[Si](C)(C)c1cc(F)ccc1Oc1ccnc2c(Cl)cccc12 [CMP2, reference compound] :: 93
C[Si](C)(C)c1c(F)cccc1Oc1cnc2cccnc2c1 [I.116] :: 100

*Q* Which Efficacy is listed for C[Si](C)(C)c1cc(F)ccc1Oc1cnc2c(Cl)cccc2c1 [I.019] ?
*A* 97

*Q* Likewise for Cc1nc2c(F)c(F)ccc2cc1Oc1cccc(F)c1[Si](C)(C)C [I.027] ?
*A* 100

*Q* Likewise for C[Si](C)(C)c1c(F)cccc1Oc1ccnc2cccnc12 [CMP4, reference compound] ?
*A* 44

----------
TEST_DETAILS: log P by HPLC on reversed-phase column (C18), EEC Directive 79/831 Annex V.A8
Type: physicochemical
MEASUREMENT_CONTEXT: Method A: 40° C., 0.1% aqueous formic acid and acetonitrile
Description: In table 1, the log P values were determined in accordance with EEC Directive 79/831 Annex V.A8 by HPLC (High Performance Liquid Chromatography) on a reversed-phase column (C18), using the methods described below: Method A: temperature: 40° C.; mobile phases: 0.1% aqueous formic acid and acetonitrile; linear gradient from 10% acetonitrile to 95% acetonitrile; […]
MEASURED_QUANTITY: logP
Form: value (number only, do not type unit).

Some solved entries appear below for comparison.
Cc1nc2ccccc2cc1Oc1ccccc1[Si](C)(C)O [I.048] :: 2.16
Cc1nc2ccccc2cc1Cc1ccccc1[Si](C)(C)C [I.139] :: 2.76
Cc1nc2c(F)c(F)ccc2cc1Oc1ccccc1[Si](C)(C)C [I.024] :: 6.01
Cc1nc2c(F)c(F)ccc2nc1Oc1cc(C#N)ccc1[Si](C)(C)O [I.093] :: 3.39
Cc1nc2ccccc2nc1Oc1cccc(F)c1[Si](C)(C)C [I.111] :: 5.45
Cc1nc2c(F)c(F)ccc2cc1Oc1cccc(Cl)c1[Si](C)(C)O [I.034] :: 3.83
Cc1cccc([Si](C)(C)O)c1Oc1nc2ccc(F)c(F)c2nc1C [I.104] :: 3.73
Cc1ccc([Si](C)(C)O)c(Oc2nc3ccc(F)c(F)c3nc2C)c1 [I.096] :: 3.76

*Q* Which logP is listed for C[Si]1(c2ccccc2)c2c(F)cccc2Oc2c(Cl)nc3ccccc3c21 (stereo not shown) ?
*A* 5.94

*Q* Likewise for Cc1ccc([Si](C)(C)O)c(Oc2nc3ccc(F)c(F)c3nc2C)c1 [I.097] ?
*A* 3.76

----------
TEST_DETAILS: log P by HPLC on reversed-phase column (C18), EEC Directive 79/831 Annex V.A8
Assay type: physicochemical
MEASUREMENT_CONTEXT: Method A: 40° C., 0.1% aqueous formic acid and acetonitrile
MEASURED_QUANTITY: logP
Form: value (number only, do not type unit).

C[Si](C)(C)c1c(F)cccc1Oc1cnc2c(F)cnn2c1 :: 4.61
C[Si](C)(O)c1c(F)cccc1Oc1cnc2c(F)cnn2c1 :: 2.60
CCN(c1ccccc1[Si](C)(C)C)c1cc2ccccc2nc1C :: 3.16
C[Si](C)(C)c1c(F)cccc1Oc1cnc2cccnc2c1 :: 4.15

*Q* Which logP is listed for Cc1nc2ccccc2nc1Oc1ccccc1[Si](C)(C)O ?
*A* 3.01

*Q* Likewise for C[Si](C)(c1ccc(Cc2ccccc2)cc1)c1ccccc1Cc1cnc2ccccc2c1 ?
*A* 5.78

----------
TEST_DETAILS: log P by HPLC on reversed-phase column (C18), EEC Directive 79/831 Annex V.A8
Assay type: physicochemical
MEASUREMENT_CONTEXT: reversed-phase HPLC column (C18), logP Method B
MEASURED_QUANTITY: chromatographic logP
Form: value (number only, do not type unit).

Brc1c(COC2CCCCO2)cccc1Nc1cnc2ccccc2c1 (centres unmarked) [II.04A] :: 4.13

*Q* Which chromatographic logP is listed for Ic1c(COC2CCCCO2)cccc1Oc1cnc2ccccc2c1 (centres unmarked) [II.05A] ?
*A* 4.56

----------
# logP per entry
TEST_DETAILS: log P by HPLC on reversed-phase column (C18), EEC Directive 79/831 Annex V.A8
Type: physicochemical
MEASUREMENT_CONTEXT: Method A: 40° C., 0.1% aqueous formic acid and acetonitrile
Form: value (number only, do not type unit).

Some solved entries appear below for comparison.
CC[Si](C)(C)c1ccccc1Oc1cnc2ccccc2n1 :: 5.48
Cc1nc2c(F)c(F)ccc2cc1Oc1cc(F)ccc1[Si](C)(C)O :: 3.55
COc1cccc(Oc2nc3ccc(F)c(F)c3nc2C)c1[Si](C)(C)O :: 3.60
C[Si](C)(C)c1ccccc1Oc1cnc2ccnn2c1 :: 4.11
Cc1nc2ccccc2cc1Cc1ccccc1[Si](C)(C)c1ccccc1 :: 2.88
Cc1nc2ccccc2nc1Oc1cccc(F)c1[Si](C)(C)O :: 3.25

From here, focus on the item given below.
*Q* Which logP is listed for C[Si](C)(O)c1c(F)cccc1Oc1cnc2ccsc2c1 ?
*A* 2.80

----------
# logP per entry
TEST_DETAILS: log P by HPLC on reversed-phase column (C18), EEC Directive 79/831 Annex V.A8
Type: physicochemical
MEASUREMENT_CONTEXT: Method A: 40° C., 0.1% aqueous formic acid and acetonitrile
Form: value (number only, do not type unit).

Some solved entries appear below for comparison.
Cc1nc2c(F)c(F)ccc2cc1Cc1ccccc1[Si](C)(C)C [I.040] :: 5.54
CC(C)C[Si](C)(C)c1ccccc1Oc1cnc2ccccc2n1 [I.073] :: 6.33
Cc1nc2c(F)c(F)ccc2nc1Oc1cccc(Cl)c1[Si](C)(C)O [I.090] :: 3.94
Cc1nc2c(F)c(F)ccc2nc1Oc1cc(F)ccc1[Si](C)(C)O [I.105] :: 3.58

*Q* Which logP is listed for Cc1nc2ccccc2cc1Oc1cccc(Cl)c1[Si](C)(C)O [I.051] ?
*A* 2.80

*Q* Likewise for Cc1nc2ccccc2cc1Oc1cccc(F)c1[Si](C)(C)C [I.046] ?
*A* 5.08

*Q* Likewise for Cc1nc2ccccc2cc1Oc1ccc(Cl)cc1[Si](C)(C)C [I.134] ?
*A* 5.68

*Q* Likewise for C[Si](C)(C)c1c(F)cccc1Oc1cc2ccccc2nc1-c1ccsc1 [I.067] ?
*A* 6.66

*Q* Likewise for Cc1nc2ccccc2cc1Oc1cccc(OC(F)(F)F)c1Br [IIa.25] ?
*A* 4.30

*Q* Likewise for C[Si](C)(c1ccccc1Oc1cnc2c(F)c(F)ccc2n1)C1CCCCC1 [I.080] ?
*A* 6.94

----------
TEST_DETAILS: log P by HPLC on reversed-phase column (C18), EEC Directive 79/831 Annex V.A8
Type: physicochemical
MEASUREMENT_CONTEXT: logP Method A
Simple rule here: logP less than 4 is 1, otherwise -1.

N#Cc1ccc(F)c(Br)c1Oc1cnc2c(F)c(F)ccc2n1 [IIb.21] :: 1
Cc1nc2c(F)c(F)ccc2nc1Oc1cccc(Cl)c1Br [IIb.18] :: -1
Cc1nc2c(F)c(F)ccc2nc1Oc1cccc(C#N)c1Br [IIb.22] :: 1
O=[N+]([O-])c1ccccc1Oc1cnc2ccccc2c1 [Va.07] :: 1
COc1cccc(Oc2nc3ccc(F)c(F)c3nc2C)c1Br [IIb.13] :: -1
Fc1cccc(Oc2cnc3ccccc3n2)c1Br [IIb.14] :: 1

*Q* Given Cc1nc2ccccc2cc1Oc1cccc(F)c1 [VIIa.04] , is recorded logP strictly lower than 4?
*A* 1

*Q* Likewise for O=[N+]([O-])c1c(F)cccc1Oc1cnc2ccccc2c1 [Va.05] ?
*A* 1

*Q* Likewise for Nc1ccccc1Nc1cnc2ccccc2c1 [IVa.01] ?
*A* 1

*Q* Likewise for Cc1nc2ccccc2cc1Oc1ccccc1[N+](=O)[O-] [Va.08] ?
*A* 1

*Q* Likewise for Cc1nc2ccccc2cc1Oc1ccccc1N [IVa.07] ?
*A* 1

*Q* Likewise for Cc1nc2c(F)c(F)ccc2nc1Oc1cccc(F)c1Br [IIb.16] ?
*A* -1
